# Tested on: cocklebur
# Protocol description: Test B pre-/postemergence herbicide test
# Format: in vivo, Xanthium strumarium
# Stated conditions: Postemergence, 500 g ai/ha; scale 0 (no effect) to 100 (complete control)
Kindly supply the reported Cocklebur plant response rating values for the records listed here.
One number for each entry.

CCNC(=O)c1ccc(F)c(NC(=O)c2nn(C(C)C)nc2C)c1 [Compound 401]    0

List Cocklebur plant response rating for every entry below, keeping the order given.
1. Cc1nn(C(C)(C)C)nc1C(=O)Nc1cccc(C(=S)N(C)C)c1 [Compound 419]
2. CCNC(=O)c1cccc(NC(=O)c2nn(C(C)(C)C)nc2C)n1 [Compound 437]
3. C=CCNC(=O)c1ccc(F)c(NC(=O)c2cc(C(C)(C)C)nn2CC)c1 [Compound 430]

40
30
90

----------
# Test system: pigweed
# Protocol description: Test C pre-/postemergence herbicide test
# Type: in vivo, Amaranthus retroflexus
# Stated conditions: 500 g ai/ha; scale 0 to 100 (0 no effect, 100 complete control); visual, 12 to 14 days; preemergence
Kindly supply the reported Plant response rating, Pigweed values for the records listed here.

CCNC(=O)c1ccc(F)c(NC(=O)C2CC(C(C)(C)C)=NN2CC)c1 (racemic)    100
CCn1nc(C(C)(C)C)cc1C(=O)Nc1cc(C(=O)N(C)OC)ccc1F    100
CCn1nc(C(C)(C)C)cc1C(=O)Nc1ccc(OC)c(OC)c1    100
CCNC(=S)c1cccc(NC(=O)c2nn(C(C)(C)C)nc2C)c1    100

List Plant response rating, Pigweed for every entry below, keeping the order given.
1. CCN(CC)C(=O)c1cccc(NC(=O)c2cc(C(C)(C)C)nn2C)n1
2. CCc1nn(C(C)C)nc1C(=O)Nc1cccc(C(=O)N2CCCCC2)c1
3. CCn1nc(C2(C)CC2)cc1C(=O)Nc1cc(C(=O)N2CC=CC2)ccc1F

1: 90; 2: 100; 3: 100

----------
# System: large crabgrass
# Protocol description: Test A pre-/postemergence herbicide test
# Type: in vivo, Digitaria sanguinalis
# Stated conditions: Preemergence, 500 g ai/ha; visual rating, 0 to 100 scale (0 no effect, 100 complete control)
Property label: Crabgrass, Large plant response rating
Give bare numbers.

CCn1nc(C(C)(C)C)cc1C(=O)Nc1cccc(C(=O)NC(C)C)c1    80
CCCCOc1cccc(NC(=O)c2cc(C(C)(C)C)nn2CC)c1    55
CCNC(=O)c1cccc(NC(=O)c2cc(C(C)(C)C)nn2CCF)c1    95
CCn1nc(C(C)(C)C)cc1C(=O)Nc1cc(C(=O)NC(C)(C)C)ccn1    25

Okay, next one:
Briefly, Crabgrass, Large plant response rating measured for `C=Cn1nc(C(C)(C)C)cc1C(=O)Nc1cccc(C(=O)N(CC)CC)c1` : 60

----------
# System: barnyardgrass
# Protocol description: Test B pre-/postemergence herbicide test
# Format: in vivo, Echinochloa crus-galli
# Stated conditions: Postemergence, 500 g ai/ha; visual rating after 13 to 15 days, scale 0 (no effect) to 100 (complete control)
Property label: Plant response rating, Barnyardgrass
Give bare numbers.

Sample records with Plant response rating, Barnyardgrass:
CCn1nc(C(C)(C)C)cc1C(=O)Nc1cccc(C(=O)NCC2CC2)c1 [Compound 62]    50
CCN(CC)C(=O)c1cccc(NC(=O)c2cc(C(C)(C)C)nn2CCF)c1 [Compound 36]    20
CCn1nc(C(C)(C)C)cc1C(=O)Nc1cccc(C(=O)NC(C)C)c1 [Compound 51]    80
C=CCn1nc(C(C)(C)C)cc1C(=O)Nc1cccc(C(=O)NCC)c1 [Compound 56]    20
C=Cn1nc(C(C)(C)C)cc1C(=O)Nc1cccc(C(=O)N(CC)CC)c1 [Compound 34]    30

List Plant response rating, Barnyardgrass for every entry below, keeping the order given.
1. CCn1nc(C(C)(C)C)cc1C(=O)Nc1cccc(C(=O)NCCF)c1 [Compound 45]
2. CCCn1nc(C(C)(C)C)cc1C(=O)Nc1cccc(C(C)=NO)c1 [Compound 113]

[30, 80]
